Experiment: human hepatoma cell viability loss – ATP luminescence, cytotoxicity control for P. falciparum antimalarial project, primary screen (AID 2303);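 further: 0% = DMSO wells and 100% = digitonin-killed cells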
Condition Notes: HepG2 viability, 24-48 h, at 10 µM, hits give high values
Examples of compounds with documented inhibition follow.
The reply should contain only the number, in %.

Cc1ccccc1C1CCN(C2CCC(NC(=O)/C=C/c3cccc(C(F)(F)F)c3)CC2)CC1 (stereo not drawn)
96
O=C(NCc1cccc(F)c1)c1ccc(O)c(-c2cc(Cl)cc(Cl)c2)c1
0
Cc1nccn1CCNC(=O)CN1CCC2(CCC1=O)CC(=O)c1ccccc1O2 (stereo not drawn)
-7
Cc1cc(N[C@@H](CC(C)C)C(=O)NC2CCCC2)nc(NCc2ccccc2C)n1
2
CN(C(=O)c1snnc1-c1ccccc1)C1CCN(CCCCCNC(=O)/C=C/c2ccc(Cl)c(Cl)c2)CC1
44
CC(C)C[C@H](NC(=O)[C@H](Cc1ccccc1)NC(=O)CCN1C(=O)COc2ccc(C(=O)O)cc21)C(=O)NC(CC1CCCCC1)C(O)CC(=O)NCCCn1ccnc1 (stereo partly drawn)
-3
COc1cccc2c(NN=Cc3ccccc3F)ccnc12
6
CCCCCCCCCCNCC(O)c1ccc(O)c(C(=O)OC)c1 (stereo not drawn)
3

# inhibition (compound: CCCC[C@H](NC(=O)O[C@H](COc1ccc(OCc2ccccc2)cc1)C(C)(C)C)C(=O)C(=O)Nc1ccn[nH]1 ) is 21

compound CC(C)N1CCC(Oc2ccc(CN3CCN(C(c4ccccc4)c4ccc(Cl)cc4)CC3)cc2)CC1 (stereo not drawn) , inhibition observed: 44

Lab book: inhibition of COc1ccc2nccc([C@@H](O)CN3CCC(NC(=O)/C=C/c4ccc5cc(C)[nH]c5c4)CC3)c2c1 noted as 7

###

# inhibition values compiled below
Test System: L-lactate dehydrogenase (Plasmodium falciparum (isolate CDC / Honduras)) (UniProt Q27743)
Sequence (Q27743 whole entry, looked up): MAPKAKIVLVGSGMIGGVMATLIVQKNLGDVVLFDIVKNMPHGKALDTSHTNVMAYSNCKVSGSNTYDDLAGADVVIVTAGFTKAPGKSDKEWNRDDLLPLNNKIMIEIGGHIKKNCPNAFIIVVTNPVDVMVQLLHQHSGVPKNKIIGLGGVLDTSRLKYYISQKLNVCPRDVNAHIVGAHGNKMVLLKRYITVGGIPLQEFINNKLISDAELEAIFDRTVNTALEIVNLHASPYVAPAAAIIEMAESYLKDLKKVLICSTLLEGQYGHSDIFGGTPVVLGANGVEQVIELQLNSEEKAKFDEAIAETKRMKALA
Experiment: PfLDH activity inhibition – cell lysate, 3D7 strain, counter-screen for P. falciparum growth inhibition project (AID 2304);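 further: 0% = vehicle and 100% = reference inhibitor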
Condition Notes: P. falciparum 3D7 crude extract, LDH APAD/NBT absorbance; at 2 µM; hits give high values
Express your answer in %, writing the number without its unit.

// recorded inhibition for Cc1cccc2[nH]c(-c3ccc(-c4cccc(CNCCN(C)C)c4)cc3)nc12 : 0

Briefly, inhibition measured for CC(C)c1ccc(OCCCON2C(N)=NC(N)=NC2(C)C)cc1 : 0

Reported inhibition for Cc1cc2c(cc1C(F)(F)F)N(C(=O)Nc1cc(C(=O)NCCN(C)C)cc(C(F)(F)F)c1)CC2 was -7

Notebook: CN1CCC(c2cc3c(cc2Br)CCN3C(=O)Nc2ccc(-c3ccncc3)c(Cl)c2)CC1 , inhibition read as -1

Input CCN1CCN(c2ccc(Nc3ccnc4ccc(Br)cc34)cc2)CC1 . Output inhibition: 2

inhibition recorded for this compound, COc1ccc(-n2nc(C)cc2C(=O)NCc2ccc(-c3c(C)noc3C)cc2)cc1 , is 3

###

Here the recorded inhibition is given for each entry.
Experiment: human hepatoma cell viability loss – ATP luminescence, cytotoxicity control for P. falciparum antimalarial project, primary screen (AID 2303);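 further: 0% = DMSO wells and 100% = digitonin-killed cells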
Condition Notes: HepG2 viability, 24-48 h, at 10 µM, hits give high values
Value expressed in %; do not type the unit.

CC(C)CCNC(=O)C1Cc2c([nH]c3cc(Br)ccc23)C2(CCN(Cc3ccccc3)CC2)N1 (centres undefined)
10
N#Cc1ccc(/C=C/C(=O)NCCCCCN2CCN(C(=O)Nc3ccc(Cl)c(C(F)(F)F)c3)CC2)cc1
42
CCCC(=O)c1cnc2c(Oc3cc(Cl)ncn3)cccc2c1Nc1ccccc1C
6
COC(=O)C1(NC(=O)c2ccc(-n3nc(C)c(-c4ccccc4)c3N)cc2)CCCC1
9

Reported inhibition of COc1ccccc1C1CCN(C2CCC(NC(=O)/C=C/c3cccc(Cl)c3F)CC2)CC1 (centres undefined) : 50

Recorded inhibition (compound CCOc1ccc(C(=O)Nc2cc(Br)c3c(c2)CNCC3)cc1Cl ): 13

###

Experiment: antimalarial activity against Dd2 strain (AID 2302);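 further: 0% = DMSO untreated growth and 100% = chloroquine plus artemisinin killed control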
Condition Notes: P. falciparum Dd2 in RBCs, LDH growth readout, 72 h; at 2 µM; hits give high values
The source made the active and inactive calls.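 Rule for the calls: active = growth inhibition above 50% at the single 2 µM test dose, taken to imply half-maximal potency below 2 µM; inactive = the rest.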
Listed here: items and their measured growth inhibition.

For this compound ( Cc1ccc(NC(=O)c2cnc(N3CCN(c4ccncc4)CC3)c(Cl)c2)cc1 ), measured growth inhibition is 24% (inactive)

growth inhibition in this record for COC(=O)CCn1c(C2CCN(CC3CCC(NC(=O)/C=C/c4ccc(Cl)c(Cl)c4)CC3)CC2)nc2ccccc21 (configuration not stated) : 10% (inactive)

Reported growth inhibition for COc1ccccc1N1CCN(CCCCNC(=O)c2ccc(NC(=O)c3cc(Cl)cc(Cl)c3)cc2)CC1 was 75% (active)

// growth inhibition value for CC(=O)N1N=C(c2ccc(Cl)cc2)Sc2c1nc(-c1ccccc1)n2C(C)=O : 81% (active)

Lab note: measured growth inhibition of O=C1CCCN1CCCNCc1cccc(-c2cccc(-c3nc4ccc(C(F)(F)F)cc4[nH]3)c2)c1 was 90% (active)

# compound CCOC(=O)C1CCN(CCCNC(=O)/C(=C/C=C/c2cc3cc(Cl)c(Cl)cc3[nH]2)OC)CC1 ; its growth inhibition = 78% (active)

Just so you know, measured growth inhibition for COc1ccc(-c2csc3ncnc(Cl)c23)cc1 came out at 97% (active)

###

Experiment: human hepatoma cell viability loss – ATP luminescence, cytotoxicity control for P. falciparum antimalarial project, primary screen (AID 2303);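 further: 0% = DMSO wells and 100% = digitonin-killed cells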
Condition Notes: HepG2 viability, 24-48 h, at 10 µM
The source made the active and inactive calls.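 How the source made its calls: active means inhibition above 50%; inactive means the rest.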
A correct response names exactly one class from active, inactive

Problem: Call for entry O=C(Nc1ccc(Oc2ccccc2)cc1)N1CCC(CCN2CCC(c3c[nH]c4ccccc34)CC2)CC1 :
Result: inactive

Problem: Check the results log: what was the call for Cc1ccc(/C=C/C(=O)N2CCC(CCN3CCC(c4c[nH]c5ccccc45)CC3)CC2)cc1C ?
Result: active

Problem: Any idea what this test logged for COc1cccc(CN2CCN(C(c3ccccc3)c3ccccc3)CC2)c1O ?
Result: inactive

###

Listed here: items and their measured growth inhibition.
Experiment: antimalarial activity against Dd2 strain (AID 2302);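 further: 0% = DMSO untreated growth and 100% = chloroquine plus artemisinin killed control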
Condition Notes: P. falciparum Dd2 in RBCs, LDH growth readout, 72 h; at 2 µM; hits give high values
Kindly answer with a numeric value in %, unit omitted.

Cc1cnc(N2CCN(CC3CCN(C)CC3)CC2)nc1Oc1ccc(-n2ccnc2)cc1
66

As a next step, examine the molecule that follows.
Just so you know, measured growth inhibition for CC(C)N1CCC(Oc2ccc(CN3CCN(C(c4ccccc4)c4ccc(Cl)cc4)CC3)cc2)CC1 (stereo not drawn) came out at 46

###

Test System: Plasmodium falciparum protein kinase 6 (PK6, PF3D7_1337100)
Experiment: PfPK6 kinase inhibitors, biochemical, TCAMS library (AID 1159586)
Condition Notes: recombinant PfPK6, Kinase-Glo ATP depletion luminescence
Results with a measured potency or affinity are listed apart. Active and inactive are the calls of the source. The rule behind the calls is not given here.
Quantity Kind: outcome

CC(C)(C)NC(=O)C(c1ccc(F)cc1)N(C(=O)c1ccc(CN2CCOCC2)o1)c1ccc(C2CCCCC2)cc1 (stereo not drawn)
inactive
N[C@@H](Cc1ccc(O)cc1)C(=O)NC(c1ccccc1)c1c(O)ccc2ccccc12 (stereo partly drawn)
inactive
c1ccc2c(C3CCN(CCCCOc4ccc5c(c4)CCN(C4CCC4)CC5)CC3)c[nH]c2c1
inactive

###

The entries below come with measured growth inhibition values attached.
Experiment: antimalarial activity against Dd2 strain (AID 2302);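 further: 0% = DMSO untreated growth and 100% = chloroquine plus artemisinin killed control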
Condition Notes: P. falciparum Dd2 in RBCs, LDH growth readout, 72 h; at 2 µM; hits give high values
Activity calls are given as the source filed them.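 Rule for the calls: active = growth inhibition above 50% at the single 2 µM test dose, taken to imply half-maximal potency below 2 µM; inactive = the rest.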

Study these solved cases before continuing.
Fc1ccc2nc(-c3cccc(-c4ccc(CNCc5ccccc5)cc4)c3)[nH]c2c1
89% (active)
O=C(Nc1ccc(OC2CCN(Cc3ccccc3)CC2)c(Cl)c1)c1ccc(F)cc1
92% (active)

Now examine the next entry.
Value of measured growth inhibition for the entry CC1CC(NCCCNc2cc(=O)c3ccccc3[nH]2)c2c1cc(Cl)c(Cl)c2Cl (stereo not drawn) : 70% (active)

###

Experiment: inhibition of 3D7 malaria parasite growth – strain 3D7 (AID 2306);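 further: 0% = DMSO wells and 100% = chloroquine plus artemisinin control wells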
Condition Notes: P. falciparum 3D7 erythrocytic growth, LDH absorbance, 72 h; at 2 µM; hits give high values
Recorded measurements of growth inhibition, one per entry
The reply should be a number in %, with the unit left off.

Cn1nccc1C(=O)NCCNCc1cccc(-c2cccc(-c3nc4ccc(F)cc4[nH]3)c2)c1
100

The value of growth inhibition measured for the compound CC(C)(C)c1ccc(O)c(CNC2CCCCC2)c1 turned out to be 100

Measured growth inhibition, COc1ccc2nccc([C@@H](O)CN3CCC(NCc4ccc5nc[nH]c(=O)c5c4)CC3)c2c1 : 99

Query Cc1cccc2c(N=NC(=S)N(C)C)c(O)[nH]c12 yields growth inhibition of 96

Noted for Cc1[nH]c(C)c(-c2ccc(-c3cccc(OC(F)(F)F)c3)nc2)c(=O)c1Cl : its growth inhibition reads 98

For record Cc1cccc2[nH]c(-c3ccc(-c4ccc(NC(=O)Nc5cccc(C#N)c5)cc4)cc3)nc12 the listed growth inhibition is 101

get_value(item= C=CCCCNCC(NCCCNc1cc(=O)c2ccccc2[nH]1)c1cc(Br)cc(Br)c1 (configuration not stated) , readout=growth inhibition) returns 94

Sample COc1cccc(Nc2nnc(SCC(=O)NNC(=O)c3ccccn3)s2)c1 ; growth inhibition observed: 99

Field growth inhibition (entry CN1CCN(c2nsc3ccc(-c4ccc(NC(=O)Nc5cc(C(F)(F)F)ccc5F)cc4)cc23)CC1 ) reads 99

Quick note, growth inhibition for Nc1nc(N)c2cc(NS(=O)(=O)c3ccc(-c4ccccc4)cc3)ccc2n1 landed at 102

Memo: CC1(C)N=C(N)N=C(N)N1O , reported growth inhibition: 93

Lab note: O=C(N[C@H]1CCN(Cc2ccc(OC3CCN(Cc4ccccc4)CC3)c(Cl)c2)C1)c1ccc(Cl)c(Cl)c1 gave growth inhibition of 99

Entry Cn1cc(C(=O)Nc2cccc(-c3cccc(-c4nc5ccc(F)cc5[nH]4)c3)c2)n(C)c1=O , growth inhibition reported as 98

// growth inhibition value for CCCN1CCN(CCCNc2c3ccccc3nc3ccccc23)CC1 : 99

In plain terms, Cc1ccc(-n2[nH]c(C)c(N=Nc3cccc(-c4cccc(NC(=O)OC(C)(C)C)c4)c3O)c2=O)cc1C has a documented growth inhibition of 94

// c1cc(OCCN2CCCC2)ccc1CNC1CCN(CC2CCCCC2)CC1 : growth inhibition value = 101

Record Cc1ccccc1C1CCN(C2CCC(NC(=O)c3ccc(-c4ccccc4F)o3)CC2)CC1 (configuration not stated) . Reported growth inhibition: 99
